- measured.target: F508delCFTR (Homo sapiens, UniProt P13569, DEL508-508)
- Construct: expressed in transfected cells; host or cells: CFBE41o- human lung-derived epithelial cells (CFBE41o-F508delCFTR-HRP), doxycycline-inducible
- Sequence (P13569 with tags, fused parts or gaps DEL508-508): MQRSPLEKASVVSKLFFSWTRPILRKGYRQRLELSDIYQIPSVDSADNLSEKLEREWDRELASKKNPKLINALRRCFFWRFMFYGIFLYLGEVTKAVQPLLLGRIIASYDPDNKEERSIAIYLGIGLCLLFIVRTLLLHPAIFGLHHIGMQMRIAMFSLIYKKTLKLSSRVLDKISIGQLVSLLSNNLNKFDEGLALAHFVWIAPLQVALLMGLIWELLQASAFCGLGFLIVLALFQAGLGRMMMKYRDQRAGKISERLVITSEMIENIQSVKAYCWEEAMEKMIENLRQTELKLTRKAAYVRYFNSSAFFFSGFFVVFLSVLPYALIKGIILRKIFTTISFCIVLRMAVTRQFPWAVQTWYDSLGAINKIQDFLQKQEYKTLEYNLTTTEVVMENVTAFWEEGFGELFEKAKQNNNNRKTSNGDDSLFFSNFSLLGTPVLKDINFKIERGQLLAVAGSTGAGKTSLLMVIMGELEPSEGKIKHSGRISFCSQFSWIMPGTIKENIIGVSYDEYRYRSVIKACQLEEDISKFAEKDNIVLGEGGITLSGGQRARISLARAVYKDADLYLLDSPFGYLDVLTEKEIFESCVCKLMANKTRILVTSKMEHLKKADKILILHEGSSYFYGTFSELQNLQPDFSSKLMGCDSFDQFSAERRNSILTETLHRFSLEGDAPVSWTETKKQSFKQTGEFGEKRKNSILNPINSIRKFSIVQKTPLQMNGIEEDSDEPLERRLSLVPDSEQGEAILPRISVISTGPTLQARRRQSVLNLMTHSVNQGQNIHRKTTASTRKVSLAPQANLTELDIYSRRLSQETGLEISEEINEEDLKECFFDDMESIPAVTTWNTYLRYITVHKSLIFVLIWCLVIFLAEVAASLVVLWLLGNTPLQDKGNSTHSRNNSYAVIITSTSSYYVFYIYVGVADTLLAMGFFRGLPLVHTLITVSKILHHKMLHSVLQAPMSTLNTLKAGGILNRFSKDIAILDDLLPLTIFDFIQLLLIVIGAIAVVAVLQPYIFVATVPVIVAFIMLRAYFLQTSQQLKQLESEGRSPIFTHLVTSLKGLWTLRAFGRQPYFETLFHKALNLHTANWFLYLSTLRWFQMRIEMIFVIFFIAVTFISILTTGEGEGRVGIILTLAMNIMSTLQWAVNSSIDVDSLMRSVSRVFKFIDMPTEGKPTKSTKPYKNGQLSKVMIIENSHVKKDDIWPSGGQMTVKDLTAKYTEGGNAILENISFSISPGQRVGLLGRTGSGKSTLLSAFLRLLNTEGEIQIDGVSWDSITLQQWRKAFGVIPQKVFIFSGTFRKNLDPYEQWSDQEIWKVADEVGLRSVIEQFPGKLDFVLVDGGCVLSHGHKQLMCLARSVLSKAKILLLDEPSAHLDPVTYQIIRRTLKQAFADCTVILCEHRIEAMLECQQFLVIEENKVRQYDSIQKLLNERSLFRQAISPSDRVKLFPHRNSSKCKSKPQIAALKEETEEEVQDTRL
- assay.summary: Cell Surface Expression-Horse Radish Peroxidase (CSE-HRP) assay, test compound without co-corrector;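 also: percent of on-plate 2 µM positive control corrector response over DMSO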
- Type: cell-based
- condition.parameters: maximum at any tested concentration, normalized to positive control, without co-corrector
quantity.measured: Emax

COc1ccc(-c2ccc(C(F)(F)F)nc2)c2c1CCCC2C(=O)NS(=O)(=O)c1cccc2ccccc12 (stereo not drawn)	≥ 150%
C=C(C)c1ccc(OC)c2c1CCC2C(=O)NS(=O)(=O)c1cccc2ccccc12 (stereo not drawn)	≥ 150%
COc1cccc2c1CCC2C(=O)NS(=O)(=O)c1ccc(Cl)cc1 (stereo not drawn)	< 50%
COc1ccc(C2CC2)c2c1C(C(=O)NS(=O)(=O)c1cccc3ccccc13)CCC2 (stereo not drawn)	≥ 150%
COc1cccc2c1CCC2C(=O)NS(=O)(=O)c1ccc(NC(C)=O)cc1Cl (stereo not drawn)	< 50%
COc1cccc2c1CCC2C(=O)NS(=O)(=O)c1ccc2ccccc2c1 (stereo not drawn)	< 50%
COc1cccc2c1CCC2C(=O)NS(=O)(=O)c1ccc(O)c([N+](=O)[O-])c1 (stereo not drawn)	< 50%
COc1cccc2c1CCC2C(=O)NS(=O)(=O)c1cccc([N+](=O)[O-])c1 (stereo not drawn)	< 50%
COc1ccc(Br)c2c1[C@@H](C(=O)NS(=O)(=O)c1cccc3ncccc13)CC2	≥ 150%
O=C(NS(=O)(=O)c1cccc2ccccc12)C1CCCc2cccc(C3CCC3)c21 (stereo not drawn)	≥ 150%
COc1ccc(C2CCC2)c2c1[C@H](C(=O)NS(=O)(=O)c1cccc3c1CCCN3)CC2	≥ 150%
Cc1ccc(S(=O)(=O)NC(=O)C2CCc3c(Cl)cccc32)nc1 (stereo not drawn)	< 50%
COc1cccc2c1C(C(=O)NS(=O)(=O)c1cccc3ccccc13)C2 (stereo not drawn)	≥ 150%
COc1cccc2c1CCC2C(=O)NS(=O)(=O)c1ccc(NC(C)=O)cc1 (stereo not drawn)	< 50%
CCC1(C(=O)NS(=O)(=O)c2cccc(N3CCCCC3)c2C)CCc2c(Cl)cccc21 (stereo not drawn)	50 to 150%
COc1ccc(CCC2OCCCO2)c2c1C(C(=O)NS(=O)(=O)c1cccc3ccccc13)CCC2 (stereo not drawn)	≥ 150%
CCC1(C(=O)NS(=O)(=O)c2cccc(Br)c2C)CCc2c(Cl)cccc21 (stereo not drawn)	50 to 150%
COCCn1cc(S(=O)(=O)NC(=O)C2CCc3c(OC)cccc32)cn1 (stereo not drawn)	< 50%

###

- measured.target: F508delCFTR (Homo sapiens, UniProt P13569, DEL508-508)
- Construct: expressed in transfected cells; host or cells: CFBE41o- human lung-derived epithelial cells (CFBE41o-F508delCFTR-HRP), doxycycline-inducible
- assay.summary: Cell Surface Expression-Horse Radish Peroxidase (CSE-HRP) assay, test compound with co-corrector
- Format: cell-based
- condition.parameters: with 2 μM co-corrector
pEC50: −log10 of the molar value.
quantity.measured: pEC50

COc1cccc2c1CCCC2C(=O)NS(=O)(=O)c1ccccc1C (centres unmarked)	5.00 to 5.52
CCC1(C(=O)NS(=O)(=O)c2ccccc2C)CCc2c(Cl)cccc21 (centres unmarked)	> 5.52
Cc1ccccc1S(=O)(=O)NC(=O)C1CCCc2cc(F)ccc21 (centres unmarked)	5.00 to 5.52
COc1ccc2c(c1)[C@@](C)(C(=O)NS(=O)(=O)c1ccccc1C)CC2	5.00 to 5.52
COc1ccc2c(c1)CCC2C(=O)NS(=O)(=O)c1ccccc1C (centres unmarked)	≤ 5.00
COc1cccc2c1CCC2C(=O)NS(=O)(=O)c1ccc(NC(C)=O)cc1Cl (centres unmarked)	≤ 5.00
COc1ccc(C2CCC2)c2c1[C@@H](C(=O)NS(=O)(=O)c1cccc3ccccc13)CC2	5.00 to 5.52
COCCOc1ccc(Br)c2c1CCCC2C(=O)NS(=O)(=O)c1cccc2ccccc12 (centres unmarked)	> 5.52
COc1ccc(Br)c2c1C(C(=O)NS(=O)(=O)c1cccc3ncc(C)n13)CC2 (centres unmarked)	> 5.52
O=C(NS(=O)(=O)c1cccc2ccccc12)C1(CO)CCc2c(Cl)cccc21 (centres unmarked)	> 5.52
CCCCC1(C(=O)NS(=O)(=O)c2cccc3ccccc23)CCc2c(Cl)cccc21 (centres unmarked)	> 5.52
COc1ccc(CCC2OCCCO2)c2c1C(C(=O)NS(=O)(=O)c1cccc3ccccc13)CCC2 (centres unmarked)	5.00 to 5.52
CCC1(C(=O)NS(=O)(=O)c2ccccc2OCCOC)CCc2c(Cl)cccc21 (centres unmarked)	> 5.52
COc1cccc2c1CCCC2C(=O)NS(=O)(=O)c1cccc2ccccc12 (centres unmarked)	5.00 to 5.52
Cc1ccccc1S(=O)(=O)NC(=O)C1CCc2c(-c3cccnc3C)cccc21 (centres unmarked)	≤ 5.00
COc1ncc(Br)c2c1C(C(=O)NS(=O)(=O)c1cccc3ccccc13)CCC2 (centres unmarked)	> 5.52
CCC1(C(=O)NS(=O)(=O)c2cn(C)c3ccccc23)CCc2c(Cl)cccc21 (centres unmarked)	> 5.52
Cc1ccccc1S(=O)(=O)NC(=O)C1CCc2ccccc21 (centres unmarked)	5.00 to 5.52
CCC1(C(=O)NS(=O)(=O)c2ccccc2OC(F)F)CCc2c(Cl)cccc21 (centres unmarked)	≤ 5.00
CC1(C(=O)NS(=O)(=O)c2cccc3ccccc23)CCc2c(Cl)cccc21 (centres unmarked)	> 5.52
O=C(NS(=O)(=O)c1ccccc1Cl)C1CCc2c(Cl)cccc21 (centres unmarked)	5.00 to 5.52
COc1ccc(C#N)c2c1C(C(=O)NS(=O)(=O)c1cccc3ccccc13)CC2 (centres unmarked)	> 5.52
COc1ccc(Cl)c2c1C(C(=O)NS(=O)(=O)c1cccc3ccccc13)CC2 (centres unmarked)	> 5.52
COc1ncc(C2CCC2)c2c1C(C(=O)NS(=O)(=O)c1cccc3ccccc13)CC2 (centres unmarked)	5.00 to 5.52
COc1ccc(Cl)c2c1C(C(=O)NS(=O)(=O)c1cccc3ccccc13)CCC2 (centres unmarked)	> 5.52
COc1cccc2c1CCC2C(=O)NS(=O)(=O)c1c(CO)c(C)nn1C (centres unmarked)	≤ 5.00
CCC1(C(=O)NS(=O)(=O)c2cccc(Cl)c2COC)CCc2c(Cl)cccc21 (centres unmarked)	> 5.52
COc1cccc2c1CCC2C(=O)NS(=O)(=O)c1cccc2ccccc12 (centres unmarked)	5.00 to 5.52
COc1ccc(Br)c2c1[C@@H](C(=O)NS(=O)(=O)c1cccc3ccccc13)CC2	5.00 to 5.52
COc1cccc(COc2ccc(Br)c3c2CCCC3C(=O)N(Cc2cccc(OC)c2)S(=O)(=O)c2cccc3ccccc23)c1 (centres unmarked)	5.00 to 5.52
COc1cccc2c1CCCC2(Cc1ccccc1)C(=O)NS(=O)(=O)c1cccc2ccccc12 (centres unmarked)	> 5.52
CC1(C(=O)NS(=O)(=O)Cc2ccccc2)CCc2c(Cl)cccc21 (centres unmarked)	≤ 5.00
O=C(NS(=O)(=O)c1cccc2ccccc12)C1CCCc2c(OC3CCOCC3)ccc(Br)c21 (centres unmarked)	> 5.52
COc1ccc(OC)c2c1CC[C@H]2C(=O)NS(=O)(=O)c1cccc2ncccc12	> 5.52
COc1ccc(-c2ccc(C)nc2)c2c1CCCC2C(=O)NS(=O)(=O)c1cccc2ccccc12 (centres unmarked)	> 5.52

###

- measured.target: F508delCFTR (Homo sapiens, UniProt P13569, DEL508-508)
- Construct: expressed in transfected cells; host or cells: CFBE41o- human lung-derived epithelial cells (CFBE41o-F508delCFTR-HRP), doxycycline-inducible
- assay.summary: Cell Surface Expression-Horse Radish Peroxidase (CSE-HRP) assay, test compound with co-corrector;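 as to Maximum % activity (with co-corrector): percent of 2 µM positive control corrector over DMSO; co-corrector is that same compound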
- Assay type: cell-based
- condition.parameters: maximum at any tested concentration, normalized to on-plate positive control, with 2 μM co-corrector
- Method: Cell Surface Expression-Horse Radish Peroxidase (CSE-HRP) Assay […] The % activity measured at each of the 8 test concentrations of the test compound added either without or with a co-corrector (2 μM of 3-[(2R,4R)-4-({[1-(2,2-difluoro-1,3-benzodioxol-5-yl)cyclopropyl]carbonyl}amino)-7-methoxy-3,4-dihydro-2H-chromen-2-yl]benzoic acid) was normalized to the on-plate positive control using the following formulae: […]
quantity.measured: Maximum % activity (with co-corrector)

Cc1ccccc1S(=O)(=O)NC(=O)C1CCc2c(-c3ccnc(F)c3)cccc21 (centres unmarked)	++ (≥150 and <350)
COCCN(C)CCC1(C(=O)NS(=O)(=O)c2cccc3ccccc23)CCc2c(Cl)cccc21 (centres unmarked)	++ (≥150 and <350)
COc1ccc(C(=O)O)c2c1C(C(=O)NS(=O)(=O)c1cccc3ccccc13)CC2 (centres unmarked)	++ (≥150 and <350)
COc1ccc(-c2ccc(C)cc2)c2c1C(C(=O)NS(=O)(=O)c1cccc3ccccc13)CCC2 (centres unmarked)	+++ (≥350)
COc1ccc(-c2ccc(C(F)(F)F)cc2)c2c1CCCC2C(=O)NS(=O)(=O)c1cccc2ccccc12 (centres unmarked)	+++ (≥350)
CCC1(C(=O)NS(=O)(=O)c2cccc3c2C(=O)N(C)C3=O)CCc2c(Cl)cccc21 (centres unmarked)	+ (<150)
CCC1(C(=O)NS(=O)(=O)c2ccccc2C#N)CCc2c(Cl)cccc21 (centres unmarked)	+ (<150)
COc1cccc2c1CCC[C@H]2C(=O)NS(=O)(=O)c1cccc(N)n1	+ (<150)
CCC1(C(=O)NS(=O)(=O)c2cc[nH]n2)CCc2c(Cl)cccc21 (centres unmarked)	++ (≥150 and <350)
CCC1(C(=O)NS(=O)(=O)c2c(C)cccc2Cl)CCc2c(Cl)cccc21 (centres unmarked)	+ (<150)
CCC1(C(=O)NS(=O)(=O)c2ccccc2OCCN2CCCCC2)CCc2c(Cl)cccc21 (centres unmarked)	++ (≥150 and <350)
Cc1ccccc1S(=O)(=O)NC(=O)C1CCc2c(-c3ccc(N4CCOCC4)nc3)cccc21 (centres unmarked)	+ (<150)
COc1cccc2c1C(C(=O)NS(=O)(=O)c1cccc3ccccc13)CC2 (centres unmarked)	++ (≥150 and <350)
COc1ccc(N2CCOCC2)c2c1CCCC2C(=O)NS(=O)(=O)c1cccc2ccccc12 (centres unmarked)	+ (<150)
COc1ccc(-c2ccc(C3CC3)nc2)c2c1C(C(=O)NS(=O)(=O)c1cccc3ccccc13)CCC2 (centres unmarked)	++ (≥150 and <350)
CCC1(C(=O)NS(=O)(=O)c2cccc(Cl)c2C)CCc2c(Cl)cccc21 (centres unmarked)	++ (≥150 and <350)
CCC1(C(=O)NS(=O)(=O)c2cccnc2Cl)CCc2c(Cl)cccc21 (centres unmarked)	++ (≥150 and <350)
CCC1(C(=O)NS(=O)(=O)c2cc(C)ccc2Cl)CCc2c(Cl)cccc21 (centres unmarked)	+ (<150)
CCC1(C(=O)NS(=O)(=O)c2ccc(Cl)cc2Cl)CCc2c(Cl)cccc21 (centres unmarked)	++ (≥150 and <350)
COc1ccc(-c2ccc(C)nc2)c2c1C(C(=O)NS(=O)(=O)c1cccc3ccccc13)CCC2 (centres unmarked)	++ (≥150 and <350)
Cc1ccccc1S(=O)(=O)NC(=O)C1CCc2c(-c3cn[nH]c3)cccc21 (centres unmarked)	+ (<150)
CCC1(C(=O)NS(=O)(=O)c2ccc3c(c2)OCCO3)CCc2c(Cl)cccc21 (centres unmarked)	++ (≥150 and <350)
CCC1(C(=O)NS(=O)(=O)c2ccc(OC(F)(F)F)cc2)CCc2c(Cl)cccc21 (centres unmarked)	+ (<150)
Cc1cnccc1-c1cccc2c1CCC2C(=O)NS(=O)(=O)c1ccccc1C (centres unmarked)	+ (<150)
COc1ccc(-c2cncnc2)c2c1C(C(=O)NS(=O)(=O)c1cccc3ccccc13)CCC2 (centres unmarked)	+++ (≥350)
COc1ccc2c(n1)CCC2C(=O)NS(=O)(=O)c1cccc2ccccc12 (centres unmarked)	++ (≥150 and <350)
Cc1ccccc1S(=O)(=O)NC(=O)C1CCc2c(-c3c[nH]nc3C)cccc21 (centres unmarked)	+ (<150)
CCC1(C(=O)NS(=O)(=O)c2c(OC)cccc2OC)CCc2c(Cl)cccc21 (centres unmarked)	+ (<150)
Cc1ccccc1S(=O)(=O)NC(=O)C1CCc2c(-c3ccncc3F)cccc21 (centres unmarked)	++ (≥150 and <350)
CCC1(C(=O)NS(=O)(=O)c2cc(Cl)ccc2Cl)CCc2c(Cl)cccc21 (centres unmarked)	+ (<150)
CCC1(C(=O)NS(=O)(=O)c2cccc(N(C)CCOC)c2C)CCc2c(Cl)cccc21 (centres unmarked)	+++ (≥350)
O=C(NS(=O)(=O)c1cccc2ccccc12)C1(Cc2ccccn2)CCc2c(Cl)cccc21 (centres unmarked)	++ (≥150 and <350)
COc1ccc(CO)c2c1C(C(=O)NS(=O)(=O)c1cccc3ccccc13)CC2 (centres unmarked)	++ (≥150 and <350)
Cc1ccccc1S(=O)(=O)NC(=O)C1CCc2c(-c3ccnn3C)cccc21 (centres unmarked)	+ (<150)
COc1ccc2c(c1OC)CC2C(=O)NS(=O)(=O)c1cccc2ccccc12 (centres unmarked)	++ (≥150 and <350)
